- Target: T1, human CD71 extracellular domain (human, UniProt P02786 89-760)
- T1 construct: also called hCD71; CD71-ECD
- T1 sequence (P02786 89-760): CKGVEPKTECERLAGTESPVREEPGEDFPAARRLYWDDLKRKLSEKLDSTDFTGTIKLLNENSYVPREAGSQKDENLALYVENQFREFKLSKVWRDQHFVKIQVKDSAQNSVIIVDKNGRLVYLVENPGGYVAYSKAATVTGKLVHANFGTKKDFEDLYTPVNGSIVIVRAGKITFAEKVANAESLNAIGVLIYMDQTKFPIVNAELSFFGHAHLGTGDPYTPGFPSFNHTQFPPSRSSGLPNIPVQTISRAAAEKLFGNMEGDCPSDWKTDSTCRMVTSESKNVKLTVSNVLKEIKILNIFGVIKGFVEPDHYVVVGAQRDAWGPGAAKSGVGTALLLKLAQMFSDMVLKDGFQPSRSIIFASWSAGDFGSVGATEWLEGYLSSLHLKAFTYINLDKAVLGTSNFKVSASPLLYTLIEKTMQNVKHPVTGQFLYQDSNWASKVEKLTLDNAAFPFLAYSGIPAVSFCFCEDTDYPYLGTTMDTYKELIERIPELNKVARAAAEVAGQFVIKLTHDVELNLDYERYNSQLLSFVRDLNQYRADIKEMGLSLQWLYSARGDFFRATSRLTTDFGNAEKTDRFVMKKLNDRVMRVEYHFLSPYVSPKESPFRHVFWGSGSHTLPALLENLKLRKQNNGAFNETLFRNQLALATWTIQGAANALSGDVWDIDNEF
- Procedure details: primary ELISA; signal over HSA control
Label key: Met means hCD71:HSA under 100 ratio; Not met means hCD71:HSA of 100 ratio or more.

Consider the following illustrative entries.
INSERT INTO assay_data (binder, qualitative_label) VALUES
  ('CD71-binding FN3 domain SEQ ID NO 391 (designed binder) MLPAPKNLIVSRVTEDSARLSWTAPDAAFDSFFIGYLEPQPPGEAISLYVPGSERSYDLTGLKPGTEYNVTIQGVKGGFPSDPLQAIFTT', 'Not met'),
  ('CD71-binding FN3 domain SEQ ID NO 351 (designed binder) MLPAPKNLVVSRVTEDSARLSWTAPDAAFDSFFIGYLEPQPPGEAITLAVPGSERSYDLTGLKPGTEYNVTIQGVKGGFPSNPLLAAFTT', 'Not met'),
  ('CD71-binding FN3 domain SEQ ID NO 418 (designed binder) MLPAPKNLVVSRVTEDSARLSWTAPDAAFDSFEIAYFENSYYGEAIVLTVPGSERSYDLTGLKPGTEYAVYIGGVKGGSWSNPLSAISTT', 'Met'),
  ('CD71-binding FN3 domain SEQ ID NO 434 (designed binder) MLPAPKNLVVSRVTEDSARLSWTAPDAAFDSFFIGYLEPQPPGEAIGLQVPGSERSYDLTGLKPGTEYNVTIQGVKGGFPSDPLQAIFTT', 'Not met'),
  ('CD71-binding FN3 domain SEQ ID NO 370 (designed binder) MLPAPKNLVVSRVTEDSARLSWTAPDAAFDSFYIAYAEPRPDGEAIVLVVPGSERSYDLTGLKPGTEYSVLIHGVKGGLLSSPLSAHFTT', 'Not met'),
  ('CD71-binding FN3 domain SEQ ID NO 407 (designed binder) MLPAPKNLVVSRVTEDSARLSWTAPDAAFDSFEIAYFETCRTGEAIVLTVPGSERSYDLTGLKPGTEYRVWIGGVKGGVWSRPLSAIFTT', 'Met');

Exercise: Lab note: confirm whether the reported hCD71:HSA for this binder is below 100 ratio, equality not counting. binder: CD71-binding FN3 domain SEQ ID NO 381 (designed binder) MLPAPKNLVVSRVTEDSARLSWTAPDAAFDSFEIAYQELSLWGEAIVLTVPGSERSYDLTGLKPGTEYYVHIGGVKGGIWSRPLSAIFTT
Key: Not met

Exercise: hCD71:HSA under 100 ratio? Item: CD71-binding FN3 domain SEQ ID NO 367 (designed binder) MLPAPKNLVVSRVTEDSARLSWTAPDAAFDSFYIAYAEPRPDGEAILLVVPGSERSYDLTGLKPGTEYSVLIHGVKGGLLSSPLVAFFTT
Key: Met

Data provenance: patent US20260151494A1
